# reported Ratio (variant antibody KD/burosumab KD); entries follow
# Target under test: T1, recombinant human FGF23 (R179Q) (human, UniProt Q9GZV9 25-251)
# T1 construct: also called rhFGF23(R179Q); hFGF23(R179Q)
# T1 sequence (looked up): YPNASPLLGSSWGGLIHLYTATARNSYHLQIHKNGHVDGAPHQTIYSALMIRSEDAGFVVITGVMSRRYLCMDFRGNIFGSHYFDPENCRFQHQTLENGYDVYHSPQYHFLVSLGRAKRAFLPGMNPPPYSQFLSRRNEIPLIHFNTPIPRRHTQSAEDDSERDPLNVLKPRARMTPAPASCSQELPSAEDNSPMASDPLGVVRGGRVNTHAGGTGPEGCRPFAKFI
# Protocol description: SPR, antibody captured on hIgG chip, rhFGF23(R179Q) analyte
Format: numeric value only, no unit, no commentary.

Here is how some binders turned out for Ratio (variant antibody KD/burosumab KD).
• UGX162 (antibody, human IgG1, kappa, V domains shown, also called HC:S59L) VH: QVQLVQSGAEVKKPGASVKVSCKASGYTFTNHYMHWVRQAPGQGLEWMGIINPISGSTLNAQKFQGRVTMTRDTSTSTVYMELSSLRSEDTAVYYCARDIVDAFDFWGQGTMVTVSS VL: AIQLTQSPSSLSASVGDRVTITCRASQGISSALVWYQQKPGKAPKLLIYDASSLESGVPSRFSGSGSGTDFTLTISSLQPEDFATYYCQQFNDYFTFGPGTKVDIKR = 0
• UGX205 (antibody, human IgG1, kappa, V domains shown, also called HC:S59E, LC:Y94D; S59E/Y94D) VH: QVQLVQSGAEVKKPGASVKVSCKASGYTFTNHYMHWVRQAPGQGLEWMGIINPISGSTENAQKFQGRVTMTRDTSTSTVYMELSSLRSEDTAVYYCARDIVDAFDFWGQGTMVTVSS VL: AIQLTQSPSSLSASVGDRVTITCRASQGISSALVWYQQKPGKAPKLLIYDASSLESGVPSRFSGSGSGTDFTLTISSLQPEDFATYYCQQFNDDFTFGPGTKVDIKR = 5

Now for a further binder.
-- ask Note down Ratio (variant antibody KD/burosumab KD) recorded for UGX160 (antibody, human IgG1, kappa, V domains shown, also called UGX066; HC:S59F) VH: QVQLVQSGAEVKKPGASVKVSCKASGYTFTNHYMHWVRQAPGQGLEWMGIINPISGSTFNAQKFQGRVTMTRDTSTSTVYMELSSLRSEDTAVYYCARDIVDAFDFWGQGTMVTVSS VL: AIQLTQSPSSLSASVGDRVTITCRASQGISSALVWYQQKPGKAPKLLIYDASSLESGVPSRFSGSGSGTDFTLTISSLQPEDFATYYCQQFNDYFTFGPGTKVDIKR
-- reply 1

Value source: patent US20260250371A1
